METHOD_SUMMARY: gradient 5% acetonitrile 3 min, to 50% in 2 min, to 85% in 15 min, held 3 min, 100 µL/min
TEST_SETTINGS: column: Zorbax Extend-C18 2.1 x 50 mm; eluents: water / acetonitrile, 0.1% formic acid
READOUT_LABEL: RP-LC retention time (s)
Reply with just the number (in s).

| COMPOUND | RP-LC retention time / s |
| --- | --- |
| Cc1nc(NC(=O)N2CCC[C@H]2C(N)=O)sc1-c1ccnc(C(C)(C)C(F)(F)F)c1 | 746 |
| Cc1cccc(-c2nc(Cn3nnc(-c4nc(-c5cccs5)no4)c3C)c(C)o2)c1 | 1220 |
| COc1ccc(CNC(=O)N2CCC(n3c(-c4ccco4)nc4cccnc43)C2)cc1 (configuration not stated) | 759 |
| CC(Oc1ccccc1)C(=O)NCCCn1cccc1 (configuration not stated) | 783 |
| CC(=O)Nc1onc(C)c1-c1ccc(C)c(S(=O)(=O)N(C)Cc2ccccc2)c1 | 905 |
| O=C(Cc1c(F)cccc1Cl)Nc1nc(-c2ccccc2)cs1 | 1040 |

Field: next compound
Enquiry: Which RP-LC retention time reading was recorded for the compound `Cc1nc(-c2csc(S(=O)(=O)N3CCC(C(=O)Nc4ccc(F)cc4F)CC3)c2)no1` ?
Return: 920
